- Test system: K4 kissing-loop RNA reporter;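 further: bound reporter read as fluorescence of individual clusters on recovered sequencing chips by microscopy, with normalized cluster intensities fitted with a binding model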
- assayText: apparent KD of K4 kissing-loop reporter; higher = weaker reporter binding
- experimentalParameters: Eterna round: R107; input ligand: none
observable: apparent KD of K4 kissing-loop reporter
Numeric answer plus unit only.

| residues | measuredResult |
| --- | --- |
| AAGGUAAGUGCAUACAAAGUGAUGUUUUGUCGAGGACCGGUACGGCCGCCACUCGCCCAGUUAAGUGACCGACGUCAACGAAUAA [theeternabot_exclusion_KL_Trp_A_21] | 582 nM |
| AACUGUCGAGGACAACAUUACUGAGGUGAUACCAGCAUCGAAAGAUGCCCUUGGCAGCACCAACUUGCAGUGAUGUUGCAAGUAA [BrourdMod 9 - Jieux - Exclusion - Theophylline A] | 343 nM |
| UCAUGAGAGACGGCCGCCACUGAAGCAGCUCUGUAAGAGCUGCAACAGUAGAGUGAUGUUCUGCGCAGGACCGGGUCGUCAUGAA [KL-SSTryp-B9] | 398 nM |
| GGUUUAUAGGAGGAUACCAGUACGGAUAAAGUACGUUAAUAGUAGAGUGAUGUUCUAAAGUACCCUUGGCAGCUUAGAGUGAGUU [ExTheophylB.L] | 122 nM |
| AAUGUACAAGUGAUGUUUGUACUUUCCGAAGGAGCGUCUAAUAAGACAGGUAGGUCGCGGAUUCUCUAAAUUAUCAGGUCAUUAA [JR_ExcArginiA_Sub018] | 94.3 nM |

Now for the sequence whose apparent KD of K4 kissing-loop reporter we want.
**Q:** Please list apparent KD of K4 kissing-loop reporter recorded for the sequence UCACUACACUGAAGGAGCGUGAGGAGACUAGUGAUGUUGGUCAGAUUCUAUGAUCGUAACUCACAGGUAGGUCGCAGUGUAGUGU [Arg B SS t7]
**A:** 518 nM

###

- System: MS2 coat protein
- assayText: apparent KD of MS2 coat protein; designed switch direction (-1 OFF switch, 1 ON switch): 1; higher = weaker reporter binding
- experimentalParameters: input ligand: microRNA oligo, concentration not stated
If the reported apparent KD of MS2 coat protein equals or exceeds 200 nM, assign y. If not, assign n.

Please review the entries below; each comes with its answer.
| residues | assignedLabel |
| --- | --- |
| UUACUCCCUACAUGAGGAUCACCCAUGUUUUACAAACCCAACGAGGAUAUGUUGAGCGGAUGUAAGCAGAAGGCGUAGGGUAGA [Eternabot solution 37] (Eterna round: R96, puzzle: Same State NG 3) | n |
| UAUUAAGCUGUAGGAUAUCUAGGAUAUGGACGAGGAUCACCCGAGCAGCAUCAGCGCACCAGAGGAGAGAAGGACGCUUUGGAA [pwkr ssNG2 2F5 2FMN.3] (Eterna round: R96, puzzle: Same State NG 2) | y |
| UUACUCAUGUAAGGAUAUGCAGCCGAAACGGCUGCAGAAGGUACUAAAAUACAUGAGGAUCACCCAUGUCUUUUUAAUUUAGAC [Mat - Same State NG 1 - JL mod - D83] (Eterna round: R96, puzzle: Same State NG 1) | n |
| GUGGUCAGACAUGAGGAUCACCCAUGUGGAAUAAAUAAGGAGAAGGAUAUAGAAUAUAGGAUAUACUAGAAGGUCUGGUUGGUG (Eterna round: R96, puzzle: Same State NG 3) | n |
| GCCGCAAGGGCAGGAUAUGGGUCCAGAGUGCAAAUGCACUCCGGUACAUGAGGAUCACCCAUGUCCCAGAAGGGCCCAAGCGGC [Bilaatdi] (Eterna round: R96, puzzle: Same State NG 2) | n |
| GUUACAUGAGGAUCACCCAUGUAUGUGUGGGAGUAAGUGUCUUAGGAUAUCUAUUAUUUGAAUUAAGAGAAGGAAGAUUGUUGU [JMF's solution 21] (Eterna round: R96, puzzle: Same State NG 3) | n |

**Q:** Reported apparent KD of MS2 coat protein reaches at least 200 nM for GUAGCAUACCGAGGAUAUUCAUAUUAUAACAUGAGGAUCACCCAUGUAGGCCGAUUACGGCCUUGGGAGAAGGCGGAAUGCUAC [Xeonanis - 20 Mod19] (Eterna round: R96, puzzle: Same State NG 2) ?
**A:** y

**Q:** Say whether GUAGCAUACCGAGGAUAUUCAUACCGGAAACGGACAUGAGGAUCACCCAUGUGGCGAAAGCCUUGGGAGAAGGCGGAAUGCUAC [Xeonanis - 20 Mod75] (Eterna round: R96, puzzle: Same State NG 2) shows apparent KD of MS2 coat protein of 200 nM or more.
**A:** y

**Q:** Could you please find out whether GGUCGGACUCACAUGAGGAUCACCCAUGUUGCGGAAACGCAGCAGGAUAUCUGUCCGAAAAGGUCAGAGAAGGGCUAACCGACC [Fiskers NG3ss - 57] (Eterna round: R96, puzzle: Same State NG 3) has apparent KD of MS2 coat protein that meets 200 nM or exceeds it?
**A:** y

###

Property: apparent KD of MS2 coat protein; scope: individual sequences
- Tested on: MS2 coat protein
- assayText: apparent KD of MS2 coat protein; designed switch direction (-1 OFF switch, 1 ON switch): 1; higher = weaker reporter binding
- experimentalParameters: input ligand: microRNA oligo, concentration not stated

| residues | measuredResult |
| --- | --- |
| GUGCUCGUGUAAGGAUAUGCUUCCGUUUCGGCUGCAGAAGGUACUAUAAUACAUGAGGAUCACCCAUGUCUCUUUUGUUUGGUG [salish99_SSNG1_r04_908] (Eterna round: R96, puzzle: Same State NG 1) | 58.6 nM |
| GUUAGGAAUCUAGCAAACAUGAGGAUCACCCAUGUUAGUGGGAAGGAUAUGGUACAGAAACUGUACCAGAAGGUCUUAUUAAUU [Omei SS(NG) 3 AV2] (Eterna round: R96, puzzle: Same State NG 3) | 39.1 nM |
| GUUACAUGAGGAUCACCCAUGUAUGUGUGGGAGUAAGUGUCUUAGGAUAUCUAUGAUUUAAUUUUAGAGAAGGAAGAUUGUUGU [JMF's solution 86] (Eterna round: R96, puzzle: Same State NG 3) | 70.9 nM |
| GCUGCAAGGGCAGGAUAUGGGUUCAGAGCAGAAGUGCGCUUUGAUACAUGAGGAUCACCCAUGUCCCAGAAGGGCCCAAGCGGC [Veribe] (Eterna round: R96, puzzle: Same State NG 2) | 98.3 nM |
| UUAAUGAUGUAAGGAUAUACAUGAGGAAUUCUCGUAGAAGGUACAUGACAUGAGGAUCACCCAUGUAUCGCUCCGUAGAGCGUA [JL SSNG1 1.12] (Eterna round: R96, puzzle: Same State NG 1) | 119 nM |

**Q:** Return reported apparent KD of MS2 coat protein. Input sequence: GUUACAUGAGGAUCACCCAUGUAUGUGUGGGAGUAAGUGUCUUAGGAUAUCUAGUAUUUAAUCUAAGAGAAGGAAGAUUGUUGU [JMF's solution 65] (Eterna round: R96, puzzle: Same State NG 3)
**A:** 74.1 nM

**Q:** Provide one value: measured apparent KD of MS2 coat protein of AAUAUUAAUGCAGGAUAUGAUUAACAUGAGGAUCACCCAUGUGGUGUUGUGAGUAAGGAGAGUGAUCAGAAGGGCAUUUUUUUU [JMF's solution 36] (Eterna round: R96, puzzle: Same State NG 2)
**A:** 349 nM

**Q:** Could you please provide reported apparent KD of MS2 coat protein for AUGCCAAAGCGAGGAUAUGGAGCCUUAUUGGCUCCAGAAGGUGUGACAUGAGGAUCACCCAUGUGGCAGUGGUCUAAUGACCAC [Eli NG1ss - 41] (Eterna round: R96, puzzle: Same State NG 1) ? Thanks!
**A:** 64.6 nM

**Q:** Return reported apparent KD of MS2 coat protein. Input sequence: UGGUACAUGGGAGGAUAUGGGCAUGAGACAUGAGGAUCACCCAUGUAUUAAAAGCCGAAAGGCAUCUAGAAGGCCCAUGUACCU [JL SSNG1 3.85] (Eterna round: R96, puzzle: Same State NG 2)
**A:** 137 nM

###

- Tested on: MS2 coat protein
- assayText: apparent KD of MS2 coat protein; designed switch direction (-1 OFF switch, 1 ON switch): -1; higher = weaker reporter binding
- experimentalParameters: input ligand: FMN 200 uM
Could you label it 1 (yes) if measured apparent KD of MS2 coat protein is 70 nM or higher, and 0 (no) otherwise?

Illustrative cases are given below, each with its answer.
| residues | testedSystem | assignedLabel |
| --- | --- | --- |
| CUGUACUGAGGAUAUACAUGAGGAUCACCCAUGUGCUUCAGCUAGGAAACUAGCAAAGGUAGAAGGCAGUACAG [Mat - Exclusion 3 - Eli Mod - D58] (Eterna round: R97, puzzle: Exclusion 3) | MS2 coat protein | 1 (yes) |
| GUCCGACAUGAGGAUCACCCAUGUGAGGAUAUGCGAUUAGCUGCUAGGUAGUUAGUAUGUAGAAGGCGCAUGAA [EX1 #76] (Eterna round: R97, puzzle: Exclusion 1) | MS2 coat protein | 0 (no) |

API: the following record is the query input.
**Q:** Tell me whether apparent KD of MS2 coat protein is at least 70 nM here: AAACACACAGGAUAUGAGAGGCGGUACAUGAGGAUCACCCAUGUCCUCGGAAAUCAGCGUUCAGAAGGGUGCGGUG [Eternabot (Original) Solution 36] (Eterna round: R97, puzzle: Exclusion 5)
**A:** 1 (yes)
